# assay.notes: Cell Proliferation Assay Versus the ED40515 IL2 Dependent ATL cell lines (AID 1053195)
# experimental.context: ED40515 IL2-dependent ATL cells
# Description: Adult T-cell leukemia (ATL) develops in individuals infected with human T-cell lymphotropic virus-1 (HTLV-1). Clinically, ATL is subclassified into four subtypes: smoldering, chronic, lymphomatous, and acute. Two autocrine loops (IL-2/IL-2Ralpha and IL-15/IL-15Ralpha) and one paracrine stimulation loop that involves IL-9 expression by ATL cells and IL-9Ralpha expression on monocytes are required to maintain viability and proliferation in the smoldering and chronic forms of the disease. […]
Active and inactive are the calls of the source. The call rests on the fitted dose curve.
Some compounds, each annotated with its measured Potency.

Solved entries (count: 3):
INSERT INTO measurements (compound, assay_result) VALUES
  ('CC(C)OC(=O)C1=CN(C(=O)c2ccc(F)c(F)c2)CC(C)(C)c2c1[nH]c1ccccc21', '4180 nM (active)'),
  ('S=C(NCc1ccc2c(c1)OCO2)N1CCN(c2ncnc3c2oc2ccccc23)CC1', '66.2 nM (active)'),
  ('Cc1cccc(-c2nn(C(=S)Nc3ccccc3)cc2-c2ccnc3ccccc23)n1', '2350 nM (active)');

Prompt: Output Potency of CC(=O)NC(C)c1ccc(Oc2ccc(OC(C)C)cc2)cc1 (stereo not given)
Completion: 13200 nM (active)

Prompt: Input Cc1c(CN2CCN(C(=O)C(C)C)CC2)sc2c(N3CCOCC3)nc(-c3cnc(N)nc3)nc12 , output reported Potency.
Completion: 1660 nM (active)

---

# assay.notes: Quantitative High-Throughput drug screen in 47 multiple myeloma cell lines against the NCATS MIPE library collection: KHM11_PLB cell viability assay (AID 1918962); further: nearly all actives have a fitted effect of over 35% in size
# experimental.context: KHM11 myeloma cell viability, CellTiter-Glo ATP luminescence, 48 h; series mostly up to 45.8 µM
Records with an inconclusive call do not appear. Activity calls are given as the source filed them. Calls come from the whole dose curve; as a rule, active = well fitted cell-killing curve with a large enough effect; inconclusive = small, poorly fitted or top-dose-only effect, or effect the other way; inactive = no such curve, though single readings can be large or run the other way.
Could you please pick one outcome from this set? Y for active, N for inactive

These solved cases illustrate the format of a correct answer.
INSERT INTO results (compound, category_label) VALUES
  ('CC(C=CC1=C(C)CCCC1(C)C)=CC=CC(C)=CC(=O)O', 'Y'),
  ('CCOC(=O)C1=C[C@]2(CC)CCCN3CCc4c(n1c1ccccc41)[C@@H]32', 'Y'),
  ('NC[C@H](O)c1ccc(O)c(O)c1', 'N');

Prompt: So what was the verdict on CCc1ccc(CCOc2ccc(CC3SC(=O)NC3=O)cc2)nc1 (stereo unspecified) in this test?
Completion: N

Prompt: Please share the test call associated with Cn1cc(-c2ccc3nnc(C(F)(F)c4ccc5ncccc5c4)n3n2)cn1 .
Completion: Y

Prompt: Hi, sorry to bother you, what did the test record for O=c1n(CCCN2CCN(c3cccc(Cl)c3)CC2)nc2ccccn12 ?
Completion: N

---

# assay.notes: Cell Proliferation Assay against the TMD8 Cell Line (AID 651645);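 further: cells exposed to compound for 48 h before reading; 100% = DMSO and 0% = 9.2 µM bortezomib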
# experimental.context: TMD8 DLBCL cell line proliferation/viability; at 46.1 µM (top of the series) unless noted
# Description: One class of targeted therapeutics showing early clinical success in killing of ABC DLBCL lines are small molecule inhibitors of the Bruton tyrosine kinase (BTK) 11. Prior to any combination assays, using an NCATS developed oncology compound library called the Mechanism of Interrogation Plate (MIPE), two well studied ABC DLBCL lines (TMD8 and HBL1) were screened using a cell viability assay (CellTiterGlo) and a 12-point titration series for each single agent. […]
property: viability (% of control) (%)
Only the number, expressed in %, is required.

Some compounds with recorded viability (% of control):
INSERT INTO measurements (entry_smiles, property, assay_result) VALUES
  ('Nc1nccc(-c2ccc3noc(-c4ccc(Cl)cc4)c3c2)n1', 'viability (% of control)', 81.3),
  ('Cc1cccc(-c2nn(C(=S)Nc3ccccc3)cc2-c2ccnc3ccccc23)n1', 'viability (% of control)', 60.3);

Please examine the following record next.
Prompt: Note down viability (% of control) recorded for CCc1cc(Nc2nccc(-c3c(-c4ccc(OC)c(C(=O)Nc5c(F)cccc5F)c4)nc4ccccn34)n2)c(OC)cc1N1CCC(N2CCN(S(C)(=O)=O)CC2)CC1
Completion: 78.7
